biological target: UniProt Q15722; assay: Inhibition of specific binding of LTB4 ( 0.1 nM) to receptors on intact human neutrophils
Sequence (Q15722 whole entry): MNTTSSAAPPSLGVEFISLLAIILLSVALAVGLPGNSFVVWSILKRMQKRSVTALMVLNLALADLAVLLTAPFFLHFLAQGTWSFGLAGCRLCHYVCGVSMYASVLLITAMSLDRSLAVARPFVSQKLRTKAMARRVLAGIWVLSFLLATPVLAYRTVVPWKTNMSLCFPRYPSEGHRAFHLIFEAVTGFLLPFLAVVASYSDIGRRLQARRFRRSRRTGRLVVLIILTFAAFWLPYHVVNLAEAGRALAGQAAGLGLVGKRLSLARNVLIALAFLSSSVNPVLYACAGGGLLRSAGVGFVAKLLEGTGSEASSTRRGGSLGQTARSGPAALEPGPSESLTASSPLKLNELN
pIC50: −log10 of the molar value.
measurement_label: pIC50

Solved cases below.
> print(dat)
                                smiles.data  test.result
1  CCCCCCCCCCOc1ccc(C(=O)c2cccc(C(=O)O)c2)cc1CCC(=O)O         6.68
2  COc1ccc(/C=C/CCCCOc2ccc3c(=O)c4cc(C(=O)O)ccc4oc3c2CCC(=O)O)cc1         8.21
3  CCCCCCCCCCOc1ccc2c(=O)c3cccc(C(=O)O)c3oc2c1CCC(=O)O         5.68
4  CCCCCCCCCCOc1cc2oc3ccc(C(=O)O)cc3c(=O)c2cc1CCC(=O)O         6.08

(1) CCCCCCCCCCOc1cc2oc3c(C(=O)O)cccc3c(=O)c2cc1CCC(=O)O
(2) CCCCCCCCCCOc1ccc2c(=O)c3cc(C(=O)O)ccc3oc2c1CCC(=O)O
Could you check which of 1 and 2 has a smaller value for pIC50? Write down the label attached to your selection.
1
(1: 5.75, 2: 7.37)
